I'd be grateful if you could share measured Population Healthy Nuclei (%) for these entries.
- System: Fibroblast
- Assay Remarks: Multiplex assay against human fibroblast
- Format: toxicity, cell-based
- Measurement Context: 12 h, 10 µM, compound concentration 10 uM, replicate 2

Query: Fill in the blank: the reported Population Healthy Nuclei (%) of O=C(O)c1ccc2cc(-c3ccc(O)c(C45CC6CC(CC(C6)C4)C5)c3)ccc2c1 [O-DEMETHYLATED ADAPALENE] is ____.
Result: 87%

Query: Fill in the blank: the reported Population Healthy Nuclei (%) of CCC(=O)O[C@]1(C(=O)SCF)[C@H](C)C[C@H]2[C@@H]3C[C@H](F)C4=CC(=O)C=C[C@]4(C)[C@@]3(F)[C@@H](O)C[C@@]21C [FLUTICASONE PROPIONATE] is ____.
Result: 81%

Query: Fill in the blank: the reported Population Healthy Nuclei (%) of Nc1ccc(C(=O)Nc2cccc(-c3nc(N4CCOCC4)c4oc5ncccc5c4n3)c2)cn1 is ____.
Result: 15%

Query: Fill in the blank: the reported Population Healthy Nuclei (%) of N#Cc1cnc(Nc2cc(NC[C@H]3CNCCO3)c(C(F)(F)F)cn2)cn1 [SRA-737] is ____.
Result: 28%

Query: Fill in the blank: the reported Population Healthy Nuclei (%) of CCOc1cc(N2CCC(O)CC2)ccc1Nc1ncc2c(n1)N(C1CCCC1)CCC(=O)N2C is ____.
Result: 36%

Query: Fill in the blank: the reported Population Healthy Nuclei (%) of COc1cc2c(Nc3ccc(NC(=O)c4ccccc4)cc3)ncnc2cc1OCCCN1CCOCC1 is ____.
Result: 27%

Query: Fill in the blank: the reported Population Healthy Nuclei (%) of CC(=O)O[C@H]1C(=O)[C@@]2(C)[C@H]([C@H](OC(=O)c3ccccc3)[C@]3(O)C[C@H](OC(=O)[C@H](O)[C@@H](NC(=O)c4ccccc4)c4ccccc4)C(C)=C1C3(C)C)[C@]1(OC(C)=O)CO[C@@H]1C[C@@H]2O [PACLITAXEL] is ____.
Result: 42% [middle of 4 runs]

Query: Fill in the blank: the reported Population Healthy Nuclei (%) of CC(=O)c1cc(-c2cc(C(=O)NC3CC3)ccc2C)c2ncccn12 is ____.
Result: 84%

Query: Fill in the blank: the reported Population Healthy Nuclei (%) of CNC(=O)c1cc(Oc2ccc(NC(=O)Nc3cc(C(C)(C)C)nn3-c3ccc4ncccc4c3)c(F)c2)ccn1 [REBASTINIB] is ____.
Result: 24%

Query: Fill in the blank: the reported Population Healthy Nuclei (%) of CCn1c(-c2nonc2N)nc2cnc(Oc3cccc(NC(=O)c4ccc(OCCN5CCOCC5)cc4)c3)cc21 [GSK-269962A] is ____.
Result: 57%

Query: Fill in the blank: the reported Population Healthy Nuclei (%) of CC(C)N1CCC(C)(C)c2cc(C#Cc3ccc(C(=O)O)cc3)ccc21 is ____.
Result: 44%

Query: Fill in the blank: the reported Population Healthy Nuclei (%) of COc1ccc(NS(=O)(=O)c2sc3ccc(Cl)cc3c2C)cc1N1CCNCC1.Cl is ____.
Result: 56%

Query: Fill in the blank: the reported Population Healthy Nuclei (%) of Cc1cc2c(cc1N1C(=O)c3cccc4c(CCCO)ccc(c34)C1=O)n(C)c(=O)n2C is ____.
Result: 63%

Query: Fill in the blank: the reported Population Healthy Nuclei (%) of Nc1nc2c(c(N3CCNCC3)n1)CCC1=C2[C@@H]2CCCC[C@@H]2O1 is ____.
Result: 68%

Query: Fill in the blank: the reported Population Healthy Nuclei (%) of Cc1cn(-c2cc(NC(=O)c3ccc4c(c3)CN(c3cncnc3)C[C@@H]4C)cc(C(F)(F)F)c2)cn1 is ____.
Result: 18%

Query: Fill in the blank: the reported Population Healthy Nuclei (%) of CNc1oc(-c2cccc3ccccc23)nc1C#N is ____.
Result: 16%

Query: Fill in the blank: the reported Population Healthy Nuclei (%) of COc1cc(N2CCC(N(C)C)CC2)ccc1Nc1ncc(Cl)c(Nc2ccccc2P(C)(C)=O)n1 is ____.
Result: 32%

Query: Fill in the blank: the reported Population Healthy Nuclei (%) of COc1cc2c(NC3CCN(C(C)C)CC3)nc(N3CCC(F)(F)CC3)nc2cc1OCCCN1CCCC1 is ____.
Result: 76%

Query: Fill in the blank: the reported Population Healthy Nuclei (%) of CCCn1c(=O)c2[nH]c(C34CC5CC(CC3C5)C4)nc2n(CCC)c1=O [ROLOFYLLINE] is ____.
Result: 74%

Query: Fill in the blank: the reported Population Healthy Nuclei (%) of c1ccc2oc(-c3csc(C4CCN(Cc5nc6ncccc6[nH]5)CC4)n3)cc2c1 is ____.
Result: 28%

Query: Fill in the blank: the reported Population Healthy Nuclei (%) of CCOc1cc2ncc(C#N)c(Nc3ccc(OCc4cccc(F)c4)c(Cl)c3)c2cc1NC(=O)/C=C/CN(C)C [HKI-357] is ____.
Result: 20%

Query: Fill in the blank: the reported Population Healthy Nuclei (%) of Cl.Cl.Nc1ncnc2c1c(-c1cccc(OCc3ccccc3)c1)cn2[C@H]1C[C@@H](CN2CCC2)C1 is ____.
Result: 47%
